Assay: Selectivity index, ratio of IC50 for IFNgamma-induced STAT1 pathway in human Cal33 cells to IC50 for IL-6-induced STAT3 pathway in human Cal33 cells
Assay type: cell-based
Details: CAL-33
# maps each entry to its Ratio IC50

Known results for compounds:
| compoundStructureString | Ratio IC50 |
| --- | --- |
| COc1ccc2nc(Nc3nc(=O)cc(C)[nH]3)nc(C)c2c1 | > 1 |
| Cc1cc(C)c2nc(Nc3nc(C)c(C)c(O)n3)nc(C)c2c1 | > 7 |

Ask: Tell me Ratio IC50 reported for Cc1nc(Nc2nc(=O)cc(-c3ccccc3)[nH]2)nc2cc3c(cc12)OCO3
Reply: > 3

Ask: Tell me Ratio IC50 reported for Cc1cc2nc(Nc3nc(=O)c(C)c(C)[nH]3)nc(C)c2cc1C
Reply: > 4
